# ASSAYED_SYSTEM: HDAC 1 (Homo sapiens, UniProt Q13547)
# Sequence (Q13547 whole entry, species assumed): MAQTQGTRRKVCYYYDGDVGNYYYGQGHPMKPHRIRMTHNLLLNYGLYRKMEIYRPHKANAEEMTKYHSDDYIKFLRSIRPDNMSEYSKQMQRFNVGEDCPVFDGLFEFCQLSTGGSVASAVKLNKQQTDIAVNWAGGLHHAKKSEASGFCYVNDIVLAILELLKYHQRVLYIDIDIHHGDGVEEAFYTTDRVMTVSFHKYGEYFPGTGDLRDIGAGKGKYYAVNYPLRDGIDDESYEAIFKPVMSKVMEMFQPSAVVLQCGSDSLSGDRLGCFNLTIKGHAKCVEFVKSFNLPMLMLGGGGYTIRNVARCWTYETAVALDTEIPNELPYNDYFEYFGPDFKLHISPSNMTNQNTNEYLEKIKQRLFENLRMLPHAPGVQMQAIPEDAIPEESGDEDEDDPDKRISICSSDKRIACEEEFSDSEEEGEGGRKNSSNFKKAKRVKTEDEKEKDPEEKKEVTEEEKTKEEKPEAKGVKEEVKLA
# PROCEDURE_DETAILS: HDAC 1 inhibition assay with about 3 hours enzyme/compound preincubation (fluorophore/quencher peptide substrate)
# Format: biochemical
# COND: 3-hour preincubation of enzyme with compound; read-out: HDAC 1 inhibitory activity (IC50 [μM]) (3-hour preincubation)
OBSERVATION_TYPE: IC50

What value of IC50 has been reported for the following compound? Cc1nc2ccc(C(F)(F)F)cn2c1-c1ccnc(Nc2ccc(C(=O)Nc3ccccc3N)cc2)n1
> 10 µM

What value of IC50 has been reported for the following compound? Cc1nc2ccc(Br)cn2c1-c1ccnc(Nc2ccc(C(=O)Nc3ccccc3N)cc2)n1
> 10 µM

What value of IC50 has been reported for the following compound? COc1ccn2c(-c3ccnc(Nc4ccc(C(=O)Nc5ccccc5N)cc4)n3)c(C)nc2c1
~0.09 µM
